// provenance: patent US20080287374A1

tested on: A549/SN-38-4 cell line; test: Effect of flavonoid in overcoming anticancer drug (SN-38) resistance of A549/SN-38 cell line; type: cell-based, human; conditions: concentration of flavonoid for 50% reduction of relative resistance value to SN-38; A549/SN-38-4, 48 hours
TEST READOUT: Resistance overcoming effect EC50 (µg/mL)

Solved entries (count: 2):
[[record]]
compound = "CC(C)=CCc1c(-c2ccc(O)cc2O)oc2c3c(cc(O)c2c1=O)OC(C)(C)C=C3 [Compound 1-28]"
recorded_number = 2.0

[[record]]
compound = "COc1ccc(-c2coc3cc(OC4O[C@H](CO)[C@@H](O)[C@H](O)[C@H]4O)cc(O)c3c2=O)cc1 (stereo partly shown) [Compound 4-2]"
recorded_number = 0.84


1: COc1cc(O)c2c(=O)cc(-c3ccc(OC4O[C@H](CO)[C@@H](O)[C@H](O)[C@H]4O)cc3)oc2c1 (stereo partly shown) [Compound 1-27, 5-Hydroxy-7-methoxyflavone-4′-glucoside]
2: CC(C)=CC1Oc2cc(O)ccc2-c2oc3cc(O)c(C=CC(C)C)c(O)c3c(=O)c21 (stereo not shown) [Compound 5-1]
Task item: When the recorded Resistance overcoming effect EC50 values are compared, which is smaller: that of 1 or that of 2 ? Use the label to indicate which entry you chose.
Reply: 1
